Target chain: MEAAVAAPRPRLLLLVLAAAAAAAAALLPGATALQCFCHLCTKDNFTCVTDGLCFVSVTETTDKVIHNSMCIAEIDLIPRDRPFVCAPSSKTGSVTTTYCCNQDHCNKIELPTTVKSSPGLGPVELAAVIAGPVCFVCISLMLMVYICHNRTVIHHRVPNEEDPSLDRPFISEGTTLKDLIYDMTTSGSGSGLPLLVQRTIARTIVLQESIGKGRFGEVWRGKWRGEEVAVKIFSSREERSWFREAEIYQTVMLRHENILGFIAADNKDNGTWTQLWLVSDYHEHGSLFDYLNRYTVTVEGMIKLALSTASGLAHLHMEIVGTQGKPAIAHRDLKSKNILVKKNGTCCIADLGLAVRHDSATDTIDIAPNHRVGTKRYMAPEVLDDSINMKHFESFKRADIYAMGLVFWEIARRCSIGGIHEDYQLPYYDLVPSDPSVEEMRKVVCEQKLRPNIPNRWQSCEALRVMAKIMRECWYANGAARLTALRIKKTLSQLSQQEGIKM
quantity name: IC50

Prompt line: Would you kindly share the measured IC50 for Clc1cccc(-c2nc3n(c2-c2cc4cnccc4s2)CCN3)n1 ?
Response line: < 1 nM

Prompt line: Would you kindly share the measured IC50 for Cc1cccc(-c2nc3n(c2-c2cc4cnccc4s2)CC(C(=O)O)N3)n1 (stereo not given) ?
Response line: < 1 nM

Prompt line: Would you kindly share the measured IC50 for Cc1cccc(-c2nc3n(c2-c2ccc4nsnc4c2)CCN3)n1 ?
Response line: < 1 nM

Prompt line: Would you kindly share the measured IC50 for Clc1cccc(-c2nc3n(c2-c2ccc4ncnn4c2)CCN3)n1 ?
Response line: < 1 nM

Prompt line: Would you kindly share the measured IC50 for Fc1ccc(Cl)cc1-c1nc2n(c1-c1cc3cnccc3s1)CCN2 ?
Response line: < 1 nM

Attribution: BindingDB's records for patent US20250270215
